- tested.target: TLR7/NFKb HEK cells (Homo sapiens, UniProt Q9NYK1)
- Sequence (Q9NYK1 27-1049): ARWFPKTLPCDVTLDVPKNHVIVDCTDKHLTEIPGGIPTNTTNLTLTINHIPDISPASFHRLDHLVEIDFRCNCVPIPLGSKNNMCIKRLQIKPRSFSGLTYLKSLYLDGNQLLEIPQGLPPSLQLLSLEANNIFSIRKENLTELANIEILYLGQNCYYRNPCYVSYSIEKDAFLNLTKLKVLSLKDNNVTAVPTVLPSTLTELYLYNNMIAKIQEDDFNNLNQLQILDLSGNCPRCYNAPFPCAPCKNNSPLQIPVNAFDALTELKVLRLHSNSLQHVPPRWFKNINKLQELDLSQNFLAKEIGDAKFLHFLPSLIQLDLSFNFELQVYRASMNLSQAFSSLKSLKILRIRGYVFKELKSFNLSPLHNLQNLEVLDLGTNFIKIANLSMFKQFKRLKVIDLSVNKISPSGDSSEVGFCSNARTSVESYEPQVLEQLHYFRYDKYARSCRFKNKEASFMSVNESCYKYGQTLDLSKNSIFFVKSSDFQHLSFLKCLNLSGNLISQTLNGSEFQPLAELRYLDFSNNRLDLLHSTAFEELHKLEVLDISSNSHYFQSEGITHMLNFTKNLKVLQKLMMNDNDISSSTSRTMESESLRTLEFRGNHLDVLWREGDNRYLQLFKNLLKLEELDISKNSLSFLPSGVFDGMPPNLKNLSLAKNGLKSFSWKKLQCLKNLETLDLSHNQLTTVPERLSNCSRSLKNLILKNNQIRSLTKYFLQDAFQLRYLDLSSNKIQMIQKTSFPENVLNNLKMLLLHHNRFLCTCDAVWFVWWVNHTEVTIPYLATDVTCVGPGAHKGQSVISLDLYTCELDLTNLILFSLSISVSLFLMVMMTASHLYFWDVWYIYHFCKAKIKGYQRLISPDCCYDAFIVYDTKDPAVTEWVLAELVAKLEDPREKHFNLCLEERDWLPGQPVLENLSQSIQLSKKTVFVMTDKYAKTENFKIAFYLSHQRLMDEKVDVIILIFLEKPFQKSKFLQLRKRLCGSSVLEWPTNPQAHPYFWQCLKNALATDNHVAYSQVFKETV
- test.method.notes: HEK Cell Assay (TLR7/NFKb reporter, Steady-Glo luciferase readout)
- details: 30 min compound preincubation, then R*48 agonist for 5 hours, read-out: Potency
- Description: Example 142: HEK Cell Assay Into 384 CulturePlates (Corning 3707) was placed 5000 c/w of TLR7/NFKb HEK cells in 30 uL DMEM without Phenil red (gibco #31053) and 10% i.a. FCS and 2 mM L-ZGLutamin. The cells were incubated for 24 h at 37° C., 10% carbon dioxide and 90% relative humidity. […] The assay plate was allowed to sit for 30 min at room temperature and then the plate was read on EnVision.
Structures can show the parent of a compound that is named as a salt.
Exercise: for every item that follows, state its recorded IC50.

| compound | IC50 |
| --- | --- |
| C[C@H]1C[C@@H](NCC#N)CN(c2ccnc3nccnc23)C1 [Compound 39, hydrochloride] | 1 to 10 µM |

Provide IC50 for all items below, preserving their order.
1. C[C@H]1C[C@@H](NC(=O)CC(F)(F)F)CN(c2ccc(C#N)c3nccnc23)C1 [Compound 111]
2. CNC(=O)CCC(=O)NC1CC(C(F)(F)F)CN(c2ccc(C#N)c3ncccc23)C1 (racemic) [Compound 492]

Reply:
1. < 1 µM
2. 1 to 10 µM

Please report IC50 for every entry that follows.
1. CN(C)CC(=O)N[C@H]1C[C@@H](C(F)(F)F)CN(c2ccc(C#N)c3nccnc23)C1 (relative stereo) [Compound 222]
2. CN1CCN(CC(=O)N[C@@H]2C[C@H](F)CN(c3ccc(C#N)c4nccnc34)C2)CC1 [Compound 502]
3. C[C@H]1C[C@@H](NC(=O)CN2CC(O)C2)CN(c2ccc(C(F)F)c3ncccc23)C1 [Compound 308]
4. C[C@H]1C[C@@H](N)CN(c2ccc(C(N)=O)c3ncccc23)C1 [Compound 180]
5. C[C@H]1C[C@@H](NC(=O)C2CCN(C3CC3)CC2)CN(c2ccc(C(F)(F)F)c3ncccc23)C1 [Compound 574]
6. N#Cc1ccc(N2C[C@H](N)C[C@H](F)C2)c2nccnc12 [Compound 499, hydrochloride]
7. C[C@H]1C[C@@H](NC(=O)[C@@H](C)N)CN(c2ccc(C#N)c3nccnc23)C1 [Compound 24]
8. Cc1ccc(N2C[C@@H](C)C[C@@H](NC(=O)CN3CCOCC3)C2)c2cccnc12 [Compound 466]

Reply:
< 1 µM
1 to 10 µM
1 to 10 µM
< 1 µM
< 1 µM
1 to 10 µM
< 1 µM
1 to 10 µM

Ask: # return recorded IC50 for input C[C@H]1C[C@@H](NC2CCN(C)C2=O)CN(c2ccc(C(F)(F)F)c3ncccc23)C1 (single isomer, unassigned) [Compound 238]
Reply: < 1 µM
